Origin of values: patent US20200055939A1

- system_name: T1, S297A
- T1 construct: % monomer 89.24; also called MICA*008.mIgG2a S297A
- T1 chain: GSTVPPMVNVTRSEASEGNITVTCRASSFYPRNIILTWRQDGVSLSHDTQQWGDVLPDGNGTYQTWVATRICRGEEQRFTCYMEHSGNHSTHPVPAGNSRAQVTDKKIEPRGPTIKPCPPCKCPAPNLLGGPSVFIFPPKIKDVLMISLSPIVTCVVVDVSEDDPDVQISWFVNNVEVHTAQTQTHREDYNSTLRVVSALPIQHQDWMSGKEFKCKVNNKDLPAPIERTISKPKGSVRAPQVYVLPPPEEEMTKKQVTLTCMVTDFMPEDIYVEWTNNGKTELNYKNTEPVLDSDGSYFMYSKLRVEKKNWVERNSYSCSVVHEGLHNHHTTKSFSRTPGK
- assay: SPR, Fab over captured MICA*008.mIgG2a Ala variant; KD relative to wild type
For each of the binders below, state its fold-decrease in affinity.
Numbers only.

Example results:
7D4.6 Fab (Fab, V domains shown) VH: DVQLQESGPGLVKPSQSLSLTCTVTGYSITSDYAWNWIRQFPRNKLEWMGYINYSGTTNYNPSLKSRISITRDTSKNQFFLQLISVTTEDTATYYCSYYRYDGAWFPYWGQGTLVTVSA VL: DIQMTQSPASLSASVGETVTITCRASGNIHNYLAWYQQKQGKSPQLLVYNAIMLADGVPSRFSASGSGTQYSLKINSLQPEDFGSYYCQHFWSFPLTFGAGTKVEIK	1.1
6F8.7 Fab (Fab, V domains shown) VH: DVQLQGSGPGLVKPSQSLSLTCSVTGYSITNDYYWNWIRQFPGNKLEWMGFISFGGSNNYNPSLKNRISITRDTSKNQFFLKLSSVTTEDTATYYCARYDGRGAWFAYWAQGTLVTVSA VL: DIQMTQSPASLSASVGETVTITCRASGNIHNYLAWYQQKQGKSPQLLVYDAITLADGVPSRFSGSGSGTQYSLKINSLQPEDFGNYYCQHFWSFPLTFGAGTKVEIK	1
2E5.2.3 Fab (Fab, V domains shown) VH: QGQMQQSGAELVKPGASVKLSCKTSGFTFSDNYISWLKQKPGQSLEWIAWIYAGTGGTSYNQKFTAKAQLTVDTSSSTAYMQFSSLTTEDSAIYYCARHDYYGTSGAWFAYWGQGTLVTVSA VL: DVLMTQTPLSLPVSLGDQASLSCRSSQNIVHINGNTYLEWYLQKPGQSPKLLIYKVSNRFSGVPDRFSGSGSGTDFTLKISRVEAEDLGVYYCFQGSHVPWTFGGGTKVEIK	1.2

Here is another binder to look at.
Ask: Fill in: fold-decrease in affinity of 1D5 Fab (Fab, V domains shown, Expressed in E. coli as chimera of murine variable and human constant domains; not shown: human IgG1 CH1 constant domain; human kappa CL constant domain) VH: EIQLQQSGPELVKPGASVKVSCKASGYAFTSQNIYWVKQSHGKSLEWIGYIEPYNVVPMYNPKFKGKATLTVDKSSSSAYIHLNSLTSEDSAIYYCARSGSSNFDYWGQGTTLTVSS VL: EIILTQSPTTMAASPGEKITITCSASSSISSHYLHWYQQKSGFSPKLLIYRTSNLASGVPARFSGSGSGTSYSLTIGTMEAEDVATYYCQQGSSLPLTFGAGTKVEIK is ___
Reply: 0.05
